- Test system: human peripheral blood lymphocytes
- MEASUREMENT_NOTES: Proliferation test, [3H]-thymidine incorporation assay, anti-CD3 stimulated
- Format: cell-based
- TEST_CONTEXT: Homo sapiens, Lymphocyte; anti-CD3 stimulation, 48 h; read-out: EC50, suppression of proliferation of human peripheral blood lymphocytes
RECORDED_ENDPOINT: EC50

> print(dat)
                                   molecule  assay.result
1  COc1c(C(=O)/C=C/c2cccc(O)c2)c(O)c(OC)c2occc12        500 nM
2  COc1c(C(=O)/C=C/c2ccccc2)c(O)c(OC)c2occc12       1000 nM
3  COc1cccc(/C=C/C(=O)c2c(O)c(OC)c3occc3c2OC)c1 (single isomer, unassigned)       1000 nM
4  COc1c(C(=O)/C=C/c2ccc(C)cc2)c(O)c(OC)c2occc12       1500 nM

* * *

RECORDED_ENDPOINT: melting point

> print(dat)
                                entry.smiles   assay.result
 1  COc1c(C(=O)/C=C/c2ccccc2Cl)c(O)c(OC)c2occc12  160 to 161 °C
 2  COc1c(C(=O)/C=C/c2cccc(F)c2)c(O)c(OC)c2occc12  121 to 123 °C
 3  COc1c(C(=O)/C=C/c2c(F)c(F)c(F)c(F)c2F)c(O)c(OC)c2occc12  112 to 114 °C
 4  COc1ccccc1/C=C/C(=O)c1c(O)c(OC)c2occc2c1OC  117 to 118 °C
 5  COc1c(C(=O)/C=C/c2ccc(CO)o2)c(O)c(OC)c2occc12  120 to 121 °C
 6  COc1c(C(=O)/C=C/c2ccc(C#N)cc2)c(O)c(OC)c2occc12  196 to 198 °C
 7  COc1c(C(=O)/C=C/c2cccc(C)n2)c(O)c(OC)c2occc12    86 to 87 °C
 8  CCCOc1ccc(/C=C/C(=O)c2c(O)c(OC)c3occc3c2OC)cc1    74 to 75 °C
 9  COc1c(C(=O)/C=C/c2ccc3c(c2)OCO3)c(O)c(OC)c2occc12  139 to 140 °C
10  COc1c(C(=O)/C=C/c2cccn2C)c(O)c(OC)c2occc12    87 to 88 °C
11  COc1c(C(=O)/C=C/c2cccc([N+](=O)[O-])c2)c(O)c(OC)c2occc12    97 to 98 °C
12  COc1c(C(=O)/C=C/c2ccc(-c3ccccc3)cc2)c(O)c(OC)c2occc12  122 to 124 °C
13  COc1c(C(=O)/C=C/c2c[nH]c3ccccc23)c(O)c(OC)c2occc12  138 to 140 °C
14  COc1c(C(=O)/C=C/c2cccc(C#N)c2)c(O)c(OC)c2occc12  182 to 183 °C
15  COc1c(C(=O)/C=C/c2cccc(Oc3ccc(Cl)cc3)c2)c(O)c(OC)c2occc12  107 to 108 °C
16  COc1c(C(=O)/C=C/c2ccc(NC(C)=O)cc2)c(O)c(OC)c2occc12  180 to 181 °C
17  COc1c(C(=O)/C=C/c2ccccc2C(F)(F)F)c(O)c(OC)c2occc12  150 to 151 °C
18  COc1c(C(=O)/C=C/c2ccccc2[N+](=O)[O-])c(O)c(OC)c2occc12  131 to 132 °C
19  COc1c(C(=O)/C=C/c2cccc(C)c2)c(O)c(OC)c2occc12    97 to 98 °C

* * *

- SYSTEM_NAME: Kv1.7 (Homo sapiens)
- Sequence (Q96RP8 whole entry): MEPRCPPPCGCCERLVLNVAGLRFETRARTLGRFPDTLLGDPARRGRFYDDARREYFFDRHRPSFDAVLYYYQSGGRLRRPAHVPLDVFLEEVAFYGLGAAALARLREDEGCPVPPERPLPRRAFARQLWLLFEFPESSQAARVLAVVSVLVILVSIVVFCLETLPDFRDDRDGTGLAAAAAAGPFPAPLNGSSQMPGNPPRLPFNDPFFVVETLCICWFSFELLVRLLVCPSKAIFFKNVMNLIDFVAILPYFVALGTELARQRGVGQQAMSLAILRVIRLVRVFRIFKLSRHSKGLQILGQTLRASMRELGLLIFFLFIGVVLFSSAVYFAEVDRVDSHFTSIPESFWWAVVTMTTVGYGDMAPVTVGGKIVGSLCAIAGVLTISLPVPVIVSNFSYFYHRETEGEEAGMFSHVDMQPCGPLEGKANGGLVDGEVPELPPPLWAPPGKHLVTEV
- MEASUREMENT_NOTES: Kv1.7 channel block, estimated Kd (Table 1)
- Type: binding
- TEST_CONTEXT: Kv1.7, end; read-out: Est. Kd, Kd end
RECORDED_ENDPOINT: Kd (µM)

> print(dat)
                                   compound  assay.result
1  COc1c(C(=O)/C=C/c2ccccc2)c(O)c(OC)c2occc12 [Example 1]             5

* * *

- SYSTEM_NAME: Kv1.3 (Homo sapiens)
- MEASUREMENT_NOTES: Kv1.3 channel block, estimated Kd (Table 1)
- Type: binding
- TEST_CONTEXT: Kv1.3, end; read-out: Est. Kd, Kd end
Listing of entries alongside the reported Kd.
RECORDED_ENDPOINT: Kd (µM)

> print(dat)
                               entry.smiles  units.symbol  assay.result
1  COc1c(C(=O)/C=C/c2ccc[nH]2)c(O)c(OC)c2occc12            µM             9
2  COc1c(C(=O)/C=C/c2sccc2C)c(O)c(OC)c2occc12            µM             6
3  COc1c(C(=O)/C=C/c2cccc(C)c2)c(O)c(OC)c2occc12            µM           0.3
4  COc1ccccc1/C=C/C(=O)c1c(O)c(OC)c2occc2c1OC            µM             1
5  COc1c(C(=O)/C=C/c2ccccc2[N+](=O)[O-])c(O)c(OC)c2occc12            µM             5

* * *

The following compounds are shown together with reported pKd values.
- SYSTEM_NAME: Kv1.1 (Homo sapiens, UniProt Q09470)
- Sequence (Q09470 whole entry): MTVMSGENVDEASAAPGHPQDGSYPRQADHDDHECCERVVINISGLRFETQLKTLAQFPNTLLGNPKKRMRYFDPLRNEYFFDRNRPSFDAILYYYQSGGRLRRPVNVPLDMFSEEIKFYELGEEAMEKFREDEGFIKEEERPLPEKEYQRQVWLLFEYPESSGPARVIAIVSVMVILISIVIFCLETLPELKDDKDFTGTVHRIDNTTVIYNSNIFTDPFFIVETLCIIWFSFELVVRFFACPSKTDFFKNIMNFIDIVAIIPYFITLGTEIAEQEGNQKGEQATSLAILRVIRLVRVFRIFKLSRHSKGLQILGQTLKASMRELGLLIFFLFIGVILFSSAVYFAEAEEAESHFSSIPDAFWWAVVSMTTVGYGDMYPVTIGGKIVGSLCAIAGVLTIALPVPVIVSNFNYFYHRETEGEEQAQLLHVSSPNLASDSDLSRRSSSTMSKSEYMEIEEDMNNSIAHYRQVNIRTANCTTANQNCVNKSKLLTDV
- MEASUREMENT_NOTES: Kv1.1 channel block, estimated Kd (Table 1)
- Format: binding
- TEST_CONTEXT: Kv1.1, area; read-out: Est. Kd, Kd area
pKd: −log10 of the molar value.
RECORDED_ENDPOINT: pKd

> print(dat)
                               entry.smiles  assay.result
1  COc1c(C(=O)/C=C/c2ccccc2)c(O)c(OC)c2occc12          5.92
2  COc1c(C(=O)/C=C/c2cccc(O)c2)c(O)c(OC)c2occc12          5.77

* * *

- SYSTEM_NAME: Kv1.1 (Homo sapiens)
- MEASUREMENT_NOTES: Kv1.1 channel block, estimated Kd (Table 1)
- Format: binding
- TEST_CONTEXT: Kv1.1, end; read-out: Est. Kd, Kd end
pKd: −log10 of the molar value.
RECORDED_ENDPOINT: pKd

> print(dat)
                               entry.smiles           system.name  assay.result
1  COc1c(C(=O)/C=C/c2cccc(O)c2)c(O)c(OC)c2occc12  Kv1.1 (Homo sapiens)          6.00
2  COc1c(C(=O)/C=C/c2ccccc2)c(O)c(OC)c2occc12  Kv1.1 (Homo sapiens)          6.15

* * *

- SYSTEM_NAME: Kv1.5 (Homo sapiens)
- Sequence (P22460 whole entry): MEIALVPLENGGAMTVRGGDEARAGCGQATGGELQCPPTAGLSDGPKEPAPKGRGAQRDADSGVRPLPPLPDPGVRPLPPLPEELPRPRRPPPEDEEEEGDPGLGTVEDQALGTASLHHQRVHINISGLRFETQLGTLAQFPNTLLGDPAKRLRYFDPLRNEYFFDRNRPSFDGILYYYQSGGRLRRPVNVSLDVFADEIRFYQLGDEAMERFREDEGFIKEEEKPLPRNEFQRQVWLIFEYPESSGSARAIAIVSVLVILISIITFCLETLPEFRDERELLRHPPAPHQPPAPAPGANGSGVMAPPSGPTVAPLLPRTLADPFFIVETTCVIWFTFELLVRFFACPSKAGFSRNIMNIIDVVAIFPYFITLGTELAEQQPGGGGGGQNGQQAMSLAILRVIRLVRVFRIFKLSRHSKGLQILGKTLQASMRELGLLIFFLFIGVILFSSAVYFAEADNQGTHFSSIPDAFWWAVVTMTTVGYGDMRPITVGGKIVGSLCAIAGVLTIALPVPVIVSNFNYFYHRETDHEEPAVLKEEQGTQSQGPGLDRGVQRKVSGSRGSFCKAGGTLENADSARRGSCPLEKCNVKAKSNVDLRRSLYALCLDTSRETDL
- MEASUREMENT_NOTES: Kv1.5 channel block, estimated Kd (Table 1)
- Type: binding
- TEST_CONTEXT: Kv1.5, end; read-out: Est. Kd, Kd end
RECORDED_ENDPOINT: Kd (µM)

> print(dat)
                                   molecule  assay.result
1  COc1cccc(/C=C/C(=O)c2c(O)c(OC)c3occc3c2OC)c1 (single isomer, unassigned) [Example 24]             6
2  COc1c(C(=O)/C=C/c2cccc(O)c2)c(O)c(OC)c2occc12 [Example 18]            10

* * *

- SYSTEM_NAME: Kv1.7 (Homo sapiens)
- MEASUREMENT_NOTES: Kv1.7 channel block, estimated Kd (Table 1)
- Format: binding
- TEST_CONTEXT: Kv1.7, time-independent; read-out: Est. Kd
pKd: −log10 of the molar value.
RECORDED_ENDPOINT: pKd

> print(dat)
                                   compound  assay.result
1  COc1c(C(=O)/C=C/c2cccc(O)c2)c(O)c(OC)c2occc12 [Example 18]          4.30

* * *

- SYSTEM_NAME: Kv1.3 (Homo sapiens, UniProt P22001)
- Sequence (P22001 whole entry): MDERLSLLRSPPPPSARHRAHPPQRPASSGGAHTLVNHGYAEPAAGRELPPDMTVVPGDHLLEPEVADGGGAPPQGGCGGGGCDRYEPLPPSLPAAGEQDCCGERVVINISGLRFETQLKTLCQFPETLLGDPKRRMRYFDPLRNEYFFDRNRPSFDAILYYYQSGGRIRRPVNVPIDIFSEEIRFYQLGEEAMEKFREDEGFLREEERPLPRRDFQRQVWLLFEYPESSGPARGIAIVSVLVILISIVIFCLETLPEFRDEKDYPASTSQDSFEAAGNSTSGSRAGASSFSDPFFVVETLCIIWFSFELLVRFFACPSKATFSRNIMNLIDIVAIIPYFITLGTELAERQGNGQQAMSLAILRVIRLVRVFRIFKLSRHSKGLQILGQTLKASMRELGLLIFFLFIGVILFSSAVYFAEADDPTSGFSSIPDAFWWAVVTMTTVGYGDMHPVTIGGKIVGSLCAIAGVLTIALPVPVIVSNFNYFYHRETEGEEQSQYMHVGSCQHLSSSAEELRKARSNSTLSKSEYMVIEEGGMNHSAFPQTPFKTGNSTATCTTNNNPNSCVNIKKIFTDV
- MEASUREMENT_NOTES: Kv1.3 channel block, estimated Kd (Table 1)
- Assay type: binding
- TEST_CONTEXT: Kv1.3, peak; read-out: Est. Kd, Kd peak
RECORDED_ENDPOINT: Kd (µM)

> print(dat)
                               entry.smiles  assay.result
1  COc1c(C(=O)/C=C/c2cccc(Cl)c2)c(O)c(OC)c2occc12            15
2  COc1c(C(=O)/C=C/c2ccccc2F)c(O)c(OC)c2occc12            90
3  COc1c(C(=O)/C=C/c2cccc(C)c2)c(O)c(OC)c2occc12           1.5
4  COc1c(C(=O)/C=C/c2ccc(C(F)(F)F)cc2)c(O)c(OC)c2occc12            10
